- TEST SUMMARY: 4-h oral plasma pharmacokinetics and tissue distribution, male wild-type and Oatp1a/1b−/− mice
- Assay type: in vivo
- EXPERIMENTAL SETUP: male, FVB, mouse, brain, po, 10 mg/kg, Table S2, male wild-type mice, 10 mg/kg oral, read-out: Brain-to-plasma ratio

SMILES ENTRY: C[C@H]1CNC(=O)c2cnn3ccc(nc23)N[C@H](C)c2cc(F)ccc2O1
Kp at 4 h: 0.15

----------
- TEST SUMMARY: 4-h oral plasma pharmacokinetics and tissue distribution, male wild-type and Oatp1a/1b−/− mice
- Format: in vivo
- EXPERIMENTAL SETUP: male, FVB, mouse, testis, po, 10 mg/kg, Table S2, male Oatp1a/1b−/− mice, 10 mg/kg oral, read-out: Ctestis
- From the text: Mice with similar average ages (and body weights) were randomly allocated in experimental groups as far as possible. […] Given the objective main readout (repotrectinib plasma and tissue concentrations as measured by LC-MS/MS), no blinding method was applied. […] A sensitive and specific liquid chromatography-tandem mass spectrometry method using protein precipitation pre-treatment was adopted to quantify the concentration of repotrectinib in DMEM medium, plasma samples and tissue homogenates. […]
READOUT: concentration at 4 h (ng/g)

MOLECULE: C[C@H]1CNC(=O)c2cnn3ccc(nc23)N[C@H](C)c2cc(F)ccc2O1 [repotrectinib]
READOUT UNITS: ng/g
MEASUREMENT: 264

----------
- TEST SUMMARY: 4-h oral plasma pharmacokinetics and tissue distribution, male wild-type and Oatp1a/1b−/− mice
- Assay type: in vivo
- EXPERIMENTAL SETUP: FVB, mouse, plasma, Table S2, median (range), male wild-type mice, 10 mg/kg oral, read-out: Tmax

SMILES ENTRY: C[C@H]1CNC(=O)c2cnn3ccc(nc23)N[C@H](C)c2cc(F)ccc2O1
Tmax, min: 30

----------
- TEST SUMMARY: 4-h oral plasma pharmacokinetics and tissue distribution, male wild-type and ABC transporter knockout mice
- Type: in vivo
- EXPERIMENTAL SETUP: male, FVB, mouse, brain, po, 10 mg/kg, male Abcb1a/1b−/− mice, 10 mg/kg oral, 4 h; read-out: Cbrain
READOUT: concentration at 4 h (ng/g)

SMILES ENTRY: C[C@H]1CNC(=O)c2cnn3ccc(nc23)N[C@H](C)c2cc(F)ccc2O1
MEASUREMENT: 394

----------
- TEST SUMMARY: 2-h oral plasma pharmacokinetics and tissue distribution, male wild-type and Oatp1a/1b−/− mice
- Format: in vivo
- EXPERIMENTAL SETUP: Oatp1a/1b−/− (>99% FVB background), mouse, liver, male Oatp1a/1b−/− mice, 10 mg/kg oral, read-out: Cliver
READOUT: concentration at 2 h

COMPOUND: C[C@H]1CNC(=O)c2cnn3ccc(nc23)N[C@H](C)c2cc(F)ccc2O1 [repotrectinib]
MEASUREMENT: 15300 ng/g

----------
- TEST SUMMARY: 8-h oral plasma pharmacokinetics and tissue distribution, female wild-type, Cyp3a−/− and Cyp3aXAV mice
- Format: in vivo
- EXPERIMENTAL SETUP: female, FVB, mouse, liver, po, 10 mg/kg, female Cyp3aXAV mice, 10 mg/kg oral, 8 h; read-out: Liver-to-plasma ratio

SMILES ENTRY: C[C@H]1CNC(=O)c2cnn3ccc(nc23)N[C@H](C)c2cc(F)ccc2O1
Kp at 8 h: 7.1

----------
- TEST SUMMARY: 2-h oral plasma pharmacokinetics and tissue distribution, male wild-type and Oatp1a/1b−/− mice
- Type: in vivo
- EXPERIMENTAL SETUP: wild-type (>99% FVB background), mouse, liver, male wild-type mice, 10 mg/kg oral, read-out: Cliver

SMILES ENTRY: C[C@H]1CNC(=O)c2cnn3ccc(nc23)N[C@H](C)c2cc(F)ccc2O1
concentration at 2 h, ng/g: 9840

----------
- TEST SUMMARY: 2-h oral plasma pharmacokinetics and tissue distribution, male wild-type and Oatp1a/1b−/− mice
- Type: in vivo
- EXPERIMENTAL SETUP: Oatp1a/1b−/− (>99% FVB background), mouse, plasma, median (range), male Oatp1a/1b−/− mice, 10 mg/kg oral

MOLECULE: C[C@H]1CNC(=O)c2cnn3ccc(nc23)N[C@H](C)c2cc(F)ccc2O1 [repotrectinib]
READOUT UNITS: min
Tmax: 30

----------
- TEST SUMMARY: 2-h oral plasma pharmacokinetics and tissue distribution, male wild-type and Oatp1a/1b−/− mice
- Assay type: in vivo
- EXPERIMENTAL SETUP: wild-type (>99% FVB background), mouse, plasma, male wild-type mice, 10 mg/kg oral
READOUT: Cmax (ng/mL)

SMILES ENTRY: C[C@H]1CNC(=O)c2cnn3ccc(nc23)N[C@H](C)c2cc(F)ccc2O1
READOUT: Cmax
MEASUREMENT: 2640

----------
- TEST SUMMARY: 4-h oral plasma pharmacokinetics and tissue distribution, male wild-type and ABC transporter knockout mice
- Format: in vivo
- EXPERIMENTAL SETUP: male, FVB, mouse, testis, po, 10 mg/kg, male Abcb1a/1b−/− mice, 10 mg/kg oral, 4 h; read-out: Ctestis

COMPOUND: C[C@H]1CNC(=O)c2cnn3ccc(nc23)N[C@H](C)c2cc(F)ccc2O1 [repotrectinib]
concentration at 4 h / ng/g: 380

----------
- TEST SUMMARY: 4-h oral plasma pharmacokinetics and tissue distribution, male wild-type and ABC transporter knockout mice
- Type: in vivo
- EXPERIMENTAL SETUP: male, FVB, mouse, liver, po, 10 mg/kg, male Abcb1a/1b;Abcg2−/− mice, 10 mg/kg oral, 4 h; read-out: Liver-to-plasma ratio

SMILES ENTRY: C[C@H]1CNC(=O)c2cnn3ccc(nc23)N[C@H](C)c2cc(F)ccc2O1
Kp at 4 h: 7.2

----------
- Tested on: endogenous canine ABCB1
- Construct: the low-level endogenous canine ABCB1 present in MDCK-II cells; host or cells: parental MDCK-II cells (canine kidney)
- TEST SUMMARY: Transepithelial transport, parental MDCK-II cells
- Assay type: in vitro ADME
- EXPERIMENTAL SETUP: dog, pH 7.4, with zosuquidar 5 µM, 5 µM, + zosuquidar 5 µM, read-out: efflux transport ratio r
READOUT: efflux ratio at 8 h, 5 µM

COMPOUND: C[C@H]1CNC(=O)c2cnn3ccc(nc23)N[C@H](C)c2cc(F)ccc2O1 [repotrectinib]
TESTED SYSTEM: endogenous canine ABCB1
READOUT: efflux ratio at 8 h, 5 µM
MEASUREMENT: 1

----------
- TEST SUMMARY: 4-h oral plasma pharmacokinetics and tissue distribution, male wild-type and ABC transporter knockout mice
- Format: in vivo
- EXPERIMENTAL SETUP: male, FVB, mouse, brain, po, 10 mg/kg, male Abcb1a/1b;Abcg2−/− mice, 10 mg/kg oral, 4 h; read-out: Cbrain
READOUT: concentration at 4 h (ng/g)

SMILES ENTRY: C[C@H]1CNC(=O)c2cnn3ccc(nc23)N[C@H](C)c2cc(F)ccc2O1
READOUT: concentration at 4 h
MEASUREMENT: 2760

----------
- TEST SUMMARY: 8-h pilot oral plasma pharmacokinetics and tissue distribution, female wild-type, Abcb1a/1b;Abcg2−/− and Oatp1a/1b−/− mice
- Assay type: in vivo
- EXPERIMENTAL SETUP: female, FVB, mouse, liver, po, 10 mg/kg, Table S1; female Abcb1a/1b;Abcg2−/− mice, 10 mg/kg oral, 8 h; read-out: Cliver
- Text: Mice with similar average ages (and body weights) were randomly allocated in experimental groups as far as possible. […] Given the objective main readout (repotrectinib plasma and tissue concentrations as measured by LC-MS/MS), no blinding method was applied. […] A sensitive and specific liquid chromatography-tandem mass spectrometry method using protein precipitation pre-treatment was adopted to quantify the concentration of repotrectinib in DMEM medium, plasma samples and tissue homogenates. […]

COMPOUND: C[C@H]1CNC(=O)c2cnn3ccc(nc23)N[C@H](C)c2cc(F)ccc2O1 [repotrectinib]
concentration at 8 h, ng/mL: 1780

----------
- TEST SUMMARY: 2-h oral plasma pharmacokinetics and tissue distribution, male wild-type and Oatp1a/1b−/− mice
- Format: in vivo
- EXPERIMENTAL SETUP: wild-type (>99% FVB background), mouse, plasma, median (range), male wild-type mice, 10 mg/kg oral

SMILES ENTRY: C[C@H]1CNC(=O)c2cnn3ccc(nc23)N[C@H](C)c2cc(F)ccc2O1
Tmax [min]: 30
